Target: UniProt:P28223
Sequence (P28223 whole entry): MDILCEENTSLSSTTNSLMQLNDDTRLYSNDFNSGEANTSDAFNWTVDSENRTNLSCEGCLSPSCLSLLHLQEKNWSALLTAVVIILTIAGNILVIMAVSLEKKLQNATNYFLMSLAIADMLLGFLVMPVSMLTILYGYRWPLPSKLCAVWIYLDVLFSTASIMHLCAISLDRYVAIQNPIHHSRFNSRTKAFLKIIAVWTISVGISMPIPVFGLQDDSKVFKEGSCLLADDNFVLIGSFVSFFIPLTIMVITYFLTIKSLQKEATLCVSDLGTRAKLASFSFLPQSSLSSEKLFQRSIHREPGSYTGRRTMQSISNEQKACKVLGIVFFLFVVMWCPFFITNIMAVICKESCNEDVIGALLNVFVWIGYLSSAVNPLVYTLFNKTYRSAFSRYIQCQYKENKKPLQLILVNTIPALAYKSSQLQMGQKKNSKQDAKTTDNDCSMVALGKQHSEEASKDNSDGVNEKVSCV
Test: Serotonin 5-HT2A in vitro cellular IPOne agonism assay (HTRF)
Settings: CHO-K1 cells, agonist mode
pEC50: −log10 of the molar value.
measuredMetric: pEC50

Use the examples below as a reference point.
                                     smiles  observedmeasurement
0      CN1CCc2[nH]c3cccc(OCc4ccccc4)c3c2CC1               < 5.00
1  CN1CCc2c(n(C)c3cccc(Oc4ccc(F)cc4)c23)CC1               < 5.00
2    CN1CCc2[nH]c3cc(Oc4ccc(F)cc4)ccc3c2CC1               < 5.00

Could you report pEC50 for every entry in the following list?
1. Cn1c2c(c3c(OCc4ccccc4)cccc31)CCNCC2
2. CN1CCc2c(n(C)c3cc(OCc4ccc(F)cc4)ccc23)CC1

*A*
1: 5.00 to 6.00; 2: < 5.00
